# MEASURED TARGET: Substance-P receptor (Homo sapiens)
# Sequence (P25103 whole entry): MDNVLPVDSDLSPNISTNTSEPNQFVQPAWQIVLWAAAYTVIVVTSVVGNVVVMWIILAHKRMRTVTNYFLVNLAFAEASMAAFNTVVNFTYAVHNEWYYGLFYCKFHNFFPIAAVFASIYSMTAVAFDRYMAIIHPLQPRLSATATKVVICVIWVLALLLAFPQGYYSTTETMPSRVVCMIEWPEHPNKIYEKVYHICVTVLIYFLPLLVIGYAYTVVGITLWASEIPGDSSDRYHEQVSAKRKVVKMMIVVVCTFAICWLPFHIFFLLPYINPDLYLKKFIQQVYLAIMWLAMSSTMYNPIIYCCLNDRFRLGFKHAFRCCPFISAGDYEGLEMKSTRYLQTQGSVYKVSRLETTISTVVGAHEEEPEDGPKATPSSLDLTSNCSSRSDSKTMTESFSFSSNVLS
# TEST DESCRIPTION: Displacement of [3H]substance P from human NK1 receptor expressed in CHO cells
# Format: cell-based
Assign pIC50 to each entry below.
One number for each entry, as −log10 of the molar value.

# count of solved cases: 3
MOL	MEASURED TARGET	pIC50
CSCC[C@H](NC(=O)[C@H](Cc1ccccc1)NC(=O)CNC(=O)[C@@H](C)NC(=O)[C@@H](N)Cc1c(C)cc(O)cc1C)C(=O)N1CCC[C@H]1C(=O)N[C@@H](CC(C)C)C(=O)N[C@@H](Cc1c[nH]c2ccccc12)C(=O)NCc1cc(C(F)(F)F)cc(C(F)(F)F)c1	Substance-P receptor (Homo sapiens)	10.74
CCCC[C@H](NC(=O)[C@H](Cc1ccccc1)NC(=O)CNC(=O)[C@@H](C)NC(=O)[C@@H](N)Cc1c(C)cc(O)cc1C)C(=O)N1CCC[C@H]1C(=O)N[C@@H](CC(C)C)C(=O)N[C@@H](Cc1c[nH]c2ccccc12)C(=O)NCc1cc(C(F)(F)F)cc(C(F)(F)F)c1	Substance-P receptor (Homo sapiens)	9.78
CCCC[C@H](NC(=O)[C@H](Cc1ccccc1)NC(=O)CNC(=O)[C@@H](C)NC(=O)[C@@H](N)Cc1c(C)cc(O)cc1C)C(=O)N1CCC[C@H]1C(=O)N[C@@H](CC(C)C)C(=O)N[C@@H](Cc1c[nH]c2ccccc12)C(=O)NCc1ccc(OC)c(OC)c1	Substance-P receptor (Homo sapiens)	8.70

// each compound listed below needs its pIC50
1. CCCC[C@H](NC(=O)[C@H](Cc1ccccc1)NC(=O)CNC(=O)[C@@H](C)NC(=O)[C@@H](N)Cc1c(C)cc(O)cc1C)C(=O)N1CCC[C@H]1C(=O)N[C@@H](CC(C)C)C(=O)N[C@@H](Cc1c[nH]c2ccccc12)C(=O)N(C)Cc1cc(C(F)(F)F)cc(C(F)(F)F)c1
2. CCCC[C@H](NC(=O)[C@H](Cc1ccccc1)NC(=O)CNC(=O)[C@@H](C)NC(=O)[C@@H](N)Cc1c(C)cc(O)cc1C)C(=O)N1CCC[C@H]1C(=O)N[C@@H](CC(C)C)C(=O)N[C@@H](Cc1c[nH]c2ccccc12)C(=O)NCc1cccc(C(F)(F)F)c1

[out]
1: 9.33; 2: 8.66
